Where do the numbers come from? From ChEMBL document CHEMBL2331512.

Exercise: for every item that follows, state its recorded Papp.
Assay: Permeability of the compound at pH 7.4 by PAMPA
Assay type: ADME
Settings: read-out: permeability
Numbers only, in ×10⁻⁶ cm/s.

CC(C)=CCC12OC(C)(C)[C@@H]3C[C@@H](C=C4C(=O)c5ccccc5O[C@]431)C2=O
29.3
CC(C)=CCC12OC[C@@H]3[C@@H](CN4CCCC4)[C@@H](C=C4C(=O)c5c(O)cccc5O[C@]431)C2=O
108
CC(C)=CCc1c(O)cc(O)c2c1O[C@@]13C(=C[C@H]4C(=O)C1(CC=C(C)C)OC[C@@H]3[C@H]4CN1CCCC1)C2=O
15.6
CC(C)=CCC12OC[C@@H]3[C@@H](COC(C)C)[C@@H](C=C4C(=O)c5c(O)cccc5O[C@]431)C2=O
123

Quick one: give me Papp for each item below, same order please.
1. CC(C)=CCc1c(O)cc(O)c2c1O[C@]13C(=C[C@@H]4C[C@H]1COC3(CC=C(C)C)C4=O)C2=O
2. CCCCN(CCCC)C[C@@H]1[C@H]2COC3(CC=C(C)C)C(=O)[C@@H]1C=C1C(=O)c4c(O)cc(O)c(CC=C(C)C)c4O[C@]123

Result:
1. 12.1
2. 11.8

###

Test: Intrinsic solubility of the compound
Assay type: physicochemical
Conditions: read-out: Intrinsic_solubility
solubility of 1000 µM or higher: criterion met. Under 1000 µM: criterion not met.

Some solved entries appear below for comparison.
CC(C)=CCc1c(O)cc(O)c2c1O[C@@]13C(=C[C@H]4C(=O)C1(CC=C(C)C)OC[C@@H]3[C@H]4CN(CCO)CCO)C2=O
criterion met
CC(=O)OC[C@@H]1[C@H]2COC3(CC=C(C)C)C(=O)[C@@H]1C=C1C(=O)c4c(O)cc(O)c(CC=C(C)C)c4O[C@]123
criterion not met
CC(C)=CCc1c(O)cc2c(c1O)C(=O)C1=C[C@H]3C(=O)C4(CC=C(C)C)OC[C@H]([C@H]3CN(C)C)[C@]14O2
criterion met
CC(C)=CCc1c(O)cc2c(c1O)C(=O)C1=C[C@H]3C(=O)C4(CC=C(C)C)OC[C@H]([C@H]3CN3CCOCC3)[C@]14O2
criterion met
CC(C)=CCc1c(O)cc(O)c2c1O[C@@]13C(=C[C@H]4C(=O)C1(CC=C(C)C)OC[C@@H]3[C@H]4COC(=O)Cc1ccccc1)C2=O
criterion not met
CC(C)=CCc1c(O)cc2c(c1O)C(=O)C1=C[C@H]3C(=O)C4(CC=C(C)C)OC[C@H]([C@H]3CN(CCO)CCO)[C@]14O2
criterion met
CC(C)=CCC12OC[C@@H]3[C@@H](COCc4ccccc4)[C@@H](C=C4C(=O)c5c(O)cccc5O[C@]431)C2=O
criterion not met
CC(C)=CCc1c(O)cc2c(c1O)C(=O)C1=C[C@H]3C(=O)C4(CC=C(C)C)OC[C@H]([C@H]3CN3CCN(c5ccccc5)CC3)[C@]14O2
criterion not met
CC(C)=CCc1c(O)cc(O)c2c1O[C@]13C(=C[C@@H]4C[C@H]1C(C)(C)OC3(CC=C(C)C)C4=O)C2=O
criterion not met
CC(C)=CCc1c(O)cc(O)c2c1O[C@@]13C(=C[C@H]4C(=O)C1(CC=C(C)C)OC[C@@H]3[C@H]4CN(C)C)C2=O
criterion met

Problem: Reported solubility reaches at least 1000 µM for CC(C)=CCC12OC[C@@H]3[C@@H](CN4CCNCC4)[C@@H](C=C4C(=O)c5c(O)cccc5O[C@]431)C2=O ?
Result: criterion met

Problem: Reported solubility reaches at least 1000 µM for CC(C)=CCc1c(O)cc(O)c2c1O[C@@]13C(=C[C@H]4C(=O)C1(CC=C(C)C)OC[C@@H]3[C@H]4COC(C)C)C2=O ?
Result: criterion not met

Problem: Reported solubility reaches at least 1000 µM for CCCCN(CCCC)C[C@@H]1[C@H]2COC3(CC=C(C)C)C(=O)[C@@H]1C=C1C(=O)c4c(O)cccc4O[C@]123 ?
Result: criterion not met

Problem: Reported solubility reaches at least 1000 µM for CC(C)=CCc1c(O)cc2c(c1O)C(=O)C1=C[C@@H]3C[C@H]4COC(CC=C(C)C)(C3=O)[C@@]14O2 ?
Result: criterion not met

Problem: Reported solubility reaches at least 1000 µM for CCCCN(CCCC)C[C@@H]1[C@H]2COC3(CC=C(C)C)C(=O)[C@@H]1C=C1C(=O)c4c(cc5c(c4O)C=CC(C)(C)O5)O[C@]123 ?
Result: criterion not met

Problem: Reported solubility reaches at least 1000 µM for CC(C)=CCC12OC[C@@H]3C[C@@H](C=C4C(=O)c5c(cc6c(c5O)C=CC(C)(C)O6)O[C@]431)C2=O ?
Result: criterion not met

Problem: Reported solubility reaches at least 1000 µM for CC(C)=CCC12OC[C@@H]3[C@@H](CN4CCOCC4)[C@@H](C=C4C(=O)c5c(cc6c(c5O)C=CC(C)(C)O6)O[C@]431)C2=O ?
Result: criterion not met

Problem: Reported solubility reaches at least 1000 µM for CC(=O)OC[C@@H]1[C@H]2COC3(CC=C(C)C)C(=O)[C@@H]1C=C1C(=O)c4c(O)cccc4O[C@]123 ?
Result: criterion met

Problem: Reported solubility reaches at least 1000 µM for CC(C)=CCC12OC[C@@H]3[C@@H](CN(C)C)[C@@H](C=C4C(=O)c5c(O)cccc5O[C@]431)C2=O ?
Result: criterion met

Problem: Reported solubility reaches at least 1000 µM for CC(C)=CCC[C@]1(C)C=Cc2c(O)c3c(c(CC=C(C)C)c2O1)O[C@]12C(=C[C@@H]4C[C@H]1C(C)(C)O[C@@]2(C/C=C(/C)C(=O)O)C4=O)C3=O ?
Result: criterion not met

Problem: Reported solubility reaches at least 1000 µM for CCCCN(CCCC)C[C@@H]1[C@H]2COC3(CC=C(C)C)C(=O)[C@@H]1C=C1C(=O)c4c(O)cc5c(c4O[C@]123)C=CC(C)(C)O5 ?
Result: criterion not met

Problem: Reported solubility reaches at least 1000 µM for CC(C)=CCC12OC[C@@H]3[C@@H](CN4CCCC4)[C@@H](C=C4C(=O)c5c(O)cccc5O[C@]431)C2=O ?
Result: criterion met

###

Test: Permeability of the compound at pH 7.4 by PAMPA
Format: ADME
Conditions: read-out: permeability
Each record is given criterion met if its reported Papp is strictly below 80 ×10⁻⁶ cm/s. Records at or above 80 ×10⁻⁶ cm/s are given criterion not met.

Some solved entries appear below for comparison.
CC(C)=CCc1c(O)cc2c(c1O)C(=O)C1=C[C@H]3C(=O)C4(CC=C(C)C)OC[C@H]([C@H]3CN3CCN(c5ccccc5)CC3)[C@]14O2
criterion met
CC(C)=CCc1c(O)cc2c(c1O)C(=O)C1=C[C@H]3C(=O)C4(CC=C(C)C)OC[C@H]([C@H]3CN(C)C)[C@]14O2
criterion met
CC(C)=CCc1c(O)cc(O)c2c1O[C@@]13C(=C[C@H]4C(=O)C1(CC=C(C)C)OC[C@@H]3[C@H]4CN1CCCCC1)C2=O
criterion met

Problem: Threshold test, Papp < 80 ×10⁻⁶ cm/s: CC(C)=CCc1c(O)cc2c(c1O)C(=O)C1=C[C@H]3C(=O)C4(CC=C(C)C)OC[C@H]([C@H]3CN3CCCC3)[C@]14O2
Result: criterion met

Problem: Threshold test, Papp < 80 ×10⁻⁶ cm/s: CC(C)=CCc1c(O)cc(O)c2c1O[C@@]13C(=C[C@H]4C(=O)C1(CC=C(C)C)OC[C@@H]3[C@H]4CN1CCN(c3ccccc3)CC1)C2=O
Result: criterion met

Problem: Threshold test, Papp < 80 ×10⁻⁶ cm/s: CC(=O)OC[C@@H]1[C@H]2COC3(CC=C(C)C)C(=O)[C@@H]1C=C1C(=O)c4c(O)cccc4O[C@]123
Result: criterion not met

Problem: Threshold test, Papp < 80 ×10⁻⁶ cm/s: CC(C)=CCC12OC[C@@H]3[C@@H](COCc4ccccc4)[C@@H](C=C4C(=O)c5c(O)cccc5O[C@]431)C2=O
Result: criterion not met

Problem: Threshold test, Papp < 80 ×10⁻⁶ cm/s: CCCCN(CCCC)C[C@@H]1[C@H]2COC3(CC=C(C)C)C(=O)[C@@H]1C=C1C(=O)c4c(O)cc5c(c4O[C@]123)C=CC(C)(C)O5
Result: criterion met

Problem: Threshold test, Papp < 80 ×10⁻⁶ cm/s: CC(C)=CCC12OC[C@@H]3[C@@H](CN4CCN(c5ccccc5)CC4)[C@@H](C=C4C(=O)c5c(O)cccc5O[C@]431)C2=O
Result: criterion met

Problem: Threshold test, Papp < 80 ×10⁻⁶ cm/s: CCCCN(CCCC)C[C@@H]1[C@H]2COC3(CC=C(C)C)C(=O)[C@@H]1C=C1C(=O)c4c(cc(O)c(CC=C(C)C)c4O)O[C@]123
Result: criterion met
